Tested on: bicuculline-induced tonic convulsion
ASSAY: Anti-bicuculline effect
Type: in vivo, male ddY-strain mice
EXPERIMENTAL_PARAMETERS: Mus musculus, po; mice, p.o. 1 hour before (+)bicuculline 0.6 mg/kg i.v.; tonic convulsion within 5 minutes
MEASURE: ED50 (mg/kg)

[[record]]
molecule = "O=C1CC2CC[S+]([O-])c3ccccc3C2=NN1c1ccc(Br)cc1 (stereo not shown)"
measure = "ED50"
measured_value = 4.5

[[record]]
molecule = "O=c1cc2c(nn1-c1ccc(Cl)cc1)-c1cc(F)ccc1SCC2"
measure = "ED50"
measured_value = 2.2

[[record]]
molecule = "O=c1cc2c(nn1-c1ccc(Cl)cc1)-c1cc(Cl)ccc1[S+]([O-])CC2 (stereo not shown)"
measure = "ED50"
measured_value = 3.2

[[record]]
molecule = "O=c1cc2c(nn1-c1ccc(Cl)cc1)-c1cc(F)ccc1[S+]([O-])CC2 (stereo not shown)"
measure = "ED50"
measured_value = 0.72

[[record]]
molecule = "O=c1cc2c(nn1-c1ccc(Br)cc1)-c1ccccc1[S+]([O-])CC2 (stereo not shown)"
measure = "ED50"
measured_value = 5.9

[[record]]
molecule = "O=c1cc2c(nn1-c1ccc(F)cc1)-c1cc(F)ccc1SCC2"
measure = "ED50"
measured_value = 6

[[record]]
molecule = "O=C1CC2CC[S+]([O-])c3ccccc3C2=NN1c1ccc(Cl)cc1 (stereo not shown)"
measure = "ED50"
measured_value = 4.5

[[record]]
molecule = "O=c1cc2c(nn1-c1ccc(Cl)cc1)-c1ccccc1SCC2"
measure = "ED50"
measured_value = 5.5

[[record]]
molecule = "O=c1cc2c(nn1-c1ccc(Cl)cc1)-c1ccccc1[S+]([O-])CC2 (stereo not shown)"
measure = "ED50"
measured_value = 1.2

[[record]]
molecule = "O=c1cc2c(nn1-c1ccc(Cl)cc1)-c1cccc(Cl)c1[S+]([O-])CC2 (stereo not shown)"
measure = "ED50"
measured_value = 0.67


----------
TARGET_SYSTEM: benzodiazepine receptor
ASSAY: Displacement ability for benzodiazepine receptor ([3H]diazepam binding)
EXPERIMENTAL_PARAMETERS: tritiated diazepam 2 nM, 0° C., 20 minutes, pH 7.4, rat cerebral cortex
pKi: −log10 of the molar value.
MEASURE: pKi

[[record]]
compound = "O=c1cc2c(nn1-c1ccc(Cl)cc1)-c1cc(Cl)ccc1[S+]([O-])CC2 (stereo not shown)"
measure = "pKi"
measured_value = 7.96

[[record]]
compound = "O=c1cc2c(nn1-c1ccc(Cl)cc1)-c1cccc(Cl)c1[S+]([O-])CC2 (stereo not shown)"
measure = "pKi"
measured_value = 7.96

[[record]]
compound = "O=c1cc2c(nn1-c1ccc(Cl)cc1)-c1cc(F)ccc1SCC2"
measure = "pKi"
measured_value = 7.85

[[record]]
compound = "O=C1CC2CC[S+]([O-])c3ccccc3C2=NN1c1ccc(Br)cc1 (stereo not shown)"
measure = "pKi"
measured_value = 7.36

[[record]]
compound = "O=c1cc2c(nn1-c1ccc(Cl)cc1)-c1ccccc1SCC2"
measure = "pKi"
measured_value = 8.00

[[record]]
compound = "O=c1cc2c(nn1-c1ccc(Cl)cc1)-c1cc(F)ccc1[S+]([O-])CC2 (stereo not shown)"
measure = "pKi"
measured_value = 7.44

[[record]]
compound = "O=c1cc2c(nn1-c1ccc(Cl)cc1)-c1ccccc1[S+]([O-])CC2 (stereo not shown)"
measure = "pKi"
measured_value = 7.43

[[record]]
compound = "O=C1CC2CC[S+]([O-])c3ccccc3C2=NN1c1ccc(Cl)cc1 (stereo not shown)"
measure = "pKi"
measured_value = 7.35

[[record]]
compound = "O=c1cc2c(nn1-c1ccc(Br)cc1)-c1ccccc1[S+]([O-])CC2 (stereo not shown)"
measure = "pKi"
measured_value = 7.47

[[record]]
compound = "O=c1cc2c(nn1-c1ccc(F)cc1)-c1cc(F)ccc1SCC2"
measure = "pKi"
measured_value = 7.37

